These entries and their values trace back to ChEMBL document CHEMBL4296182.

Consider the following compounds and their measured Inhibition readings.
Test system: Candida albicans
particulars: 20 µM
Description: Antifungal activity against Candida albicans ATCC 90028 (CO-ADD:FG_001); MIC in YNB media using NBS plates, by OD630
Results with a measured potency or affinity are listed apart.
// note: answer is a bare numeric in %

Nc1ccc(-c2nc3nc(N)nc(N)c3nc2-c2ccc(N)cc2)cc1	0.39
C/C(=N\O)C1CC(CC(=O)O)C1(C)C (stereo not given)	2.15

Prompt: Return Inhibition for the following compound: CC1(C)N=C(N)N=C(NCCCOc2ccc([N+](=O)[O-])cc2)N1.CCS(=O)(=O)O
Completion: -1.81

Prompt: Return Inhibition for the following compound: CC(=O)Oc1ccc2cc(-c3ccccc3)c(=O)oc2c1
Completion: 4.89

Prompt: Return Inhibition for the following compound: Cc1ccc(NC(=O)Nc2nc3ccccc3s2)cc1NC(=O)Nc1nc2ccccc2s1
Completion: -2.38

Prompt: Return Inhibition for the following compound: COc1cc(/N=N/c2ccccc2C(=O)O)ccc1O
Completion: -1.22

Prompt: Return Inhibition for the following compound: O=C(/C=C\c1ccc(O)c(O)c1)OC1C(O)CC(OC(=O)/C=C/c2ccc(O)c(O)c2)(C(=O)O)CC1O (stereo not given)
Completion: -2.85

Prompt: Return Inhibition for the following compound: Oc1nccc(SCc2ccc(Cl)cc2Cl)n1
Completion: 6.12

Prompt: Return Inhibition for the following compound: CCCc1nc2c(=O)n(C)c(=O)n(C)c2[nH]1
Completion: 2.02

Prompt: Return Inhibition for the following compound: CC(=O)Nc1cccc(NC(C)=O)n1
Completion: -2.4

Prompt: Return Inhibition for the following compound: CSC(=O)NC(=O)NC(=O)c1ccc([N+](=O)[O-])cc1
Completion: -0.48

Prompt: Return Inhibition for the following compound: COC(=O)Cc1[nH]c(Cl)nc1C(N)=O
Completion: 1.21

Prompt: Return Inhibition for the following compound: O=C(C(=O)c1cccnc1)c1cccnc1
Completion: -0.57

Prompt: Return Inhibition for the following compound: O=C(Nc1ccc(Nc2ccncc2)cc1)c1ccc([N+](=O)[O-])cc1
Completion: 3.08

Prompt: Return Inhibition for the following compound: Cc1cn(C2CC(O)C(CO)O2)c(=O)n(Cc2ccccc2)c1=O (stereo not given)
Completion: 1.89

* * *

System: Staphylococcus aureus
assay explanation: Antibacterial activity against Staphylococcus aureus MRSA ATCC 43300 (CO-ADD:GP_020); MIC in CAMBH media using NBS plates, by Resazurin F(560/590)
Type: functional
particulars: Concentration 20 uM, ASSAY_TEST Inhibition of Bacterial Growth, detection method Resazurin, Fluorescence (ex560/em590), MEDIA CAMHB, plate type 384well, CORNING #3640, time 18 hr
Consider the following compounds and their measured Inhibition readings.
// note: answer is a bare numeric in %

N#Cc1cc(-c2ccccc2)[nH]c1-c1nccc2ccccc12	-0.89

Prompt: Return Inhibition for the following compound: c1ccc(/N=N/N2CCOCC2)cc1
Completion: 10.43

Prompt: Return Inhibition for the following compound: O=C1/C(=C/c2ccc([N+](=O)[O-])cc2)CCc2ccccc21
Completion: 6.03

Prompt: Return Inhibition for the following compound: CC1=CC(C)(C)Nc2ccc(Cc3ccc4c(c3)C(C)=CC(C)(C)N4)cc21
Completion: 2.44

Prompt: Return Inhibition for the following compound: CCn1c2ccccc2c2c3ncc4cccn4c3ccc21
Completion: -13.6

* * *

Consider the following compounds and their measured Inhibition readings.
System: Acinetobacter baumannii
assay explanation: Antibacterial activity against Acinetobacter baumannii ATCC 19606 (CO-ADD:GN_034); MIC in CAMBH media using NBS plates, by Resazurin F(560/590)
Type: functional
particulars: Concentration 20 uM, ASSAY_TEST Inhibition of Bacterial Growth, detection method Resazurin, Fluorescence (ex560/em590), MEDIA CAMHB, plate type 384well, CORNING #3640, time 18 hr
// note: answer is a bare numeric in %

Below: 5 compounds and their reported Inhibition.
Nc1cc(Nc2ccc(Br)cc2)nc(N)n1	10.22
C=C(C)C(=O)Nc1ccc(NC(C)C)cc1	5.36
CC1=C2C3OC(=O)C(C)C3CCC2(C)C=C(Cl)C1=O (stereo unspecified)	-5.14
CC(=O)OCCN1c2ccccc2Sc2cnccc21	-1.85
Cn1ncc2c(Nc3ccc(Br)cc3)nc(Nc3ccc(Br)cc3)nc21	-7.92

Prompt: Please report Inhibition with Acinetobacter baumannii for item c1ccc(CSc2nnc3c4ccccc4c4ccccc4c3n2)cc1 .
Completion: 11.2

Prompt: Please report Inhibition with Acinetobacter baumannii for item O=S(=O)(O)c1ccc2c(c1)C(C(Cl)(Cl)Cl)OC(C(Cl)(Cl)Cl)O2 (stereo unspecified) .
Completion: -8.34

Prompt: Please report Inhibition with Acinetobacter baumannii for item Clc1ccc(Oc2nc3c(Cl)cccc3s2)cc1Cl .
Completion: 12.9

Prompt: Please report Inhibition with Acinetobacter baumannii for item CN(C)c1ncnc2c1ncn2-c1ccccc1 .
Completion: -8.04

Prompt: Please report Inhibition with Acinetobacter baumannii for item COC(=O)c1ccc(Cn2cnc3c(Cl)ncnc32)cc1 .
Completion: 0.57

Prompt: Please report Inhibition with Acinetobacter baumannii for item Nc1ccc(/C=C/c2ccc3ncccc3c2)cc1 .
Completion: -9.02

* * *

Test system: Escherichia coli
assay explanation: Antibacterial activity against Escherichia coli ATCC 25922 (CO-ADD:GN_001); MIC in CAMBH media using NBS plates, by Resazurin F(560/590)
Type: functional
particulars: Concentration 20 uM, ASSAY_TEST Inhibition of Bacterial Growth, detection method Resazurin, Fluorescence (ex560/em590), MEDIA CAMHB, plate type 384well, CORNING #3640, time 18 hr
criterion met if Inhibition is below 4%. criterion not met if not; exact matches included in criterion not met.

OCC(O)C1OCOC(C(O)CO)C1O (configuration not stated)	criterion not met
CCOC(=O)Cc1cc(O)c2cc(C)ccc2n1	criterion not met
CC(C)N(C(=O)c1cccc([N+](=O)[O-])c1)C(C)C	criterion not met

Now examine the next entry.
Prompt: Find out if reported Inhibition for Clc1nc2nc3n(c2nc1Cl)CCC3 is less than 4%
Completion: criterion met

* * *

Tested on: Staphylococcus aureus
assay explanation: Antibacterial activity against Staphylococcus aureus MRSA ATCC 43300 (CO-ADD:GP_020); MIC in CAMBH media using NBS plates, by Resazurin F(560/590)
Type: functional
particulars: Concentration 20 uM, ASSAY_TEST Inhibition of Bacterial Growth, detection method Resazurin, Fluorescence (ex560/em590), MEDIA CAMHB, plate type 384well, CORNING #3640, time 18 hr
result type: Inhibition (%)
// note: answer is a bare numeric in %

CC(=O)[C@H]1CC[C@H]2[C@@H]3CCC4=CC(=O)C=C[C@]4(C)[C@H]3C(=O)C[C@]12C	11.15
CC1OC1c1ccc(-c2ccc(C3OC3C)cc2)cc1 (configuration not stated)	3.27
Sc1nc2ccccc2c2ccccc12	-5.22

Prompt: Return Inhibition for the following compound: C#CC1(N2CCCCC2)CCCCC1
Completion: 17.84

Prompt: Return Inhibition for the following compound: COc1cc(/N=N/c2cccc(S(N)(=O)=O)c2)c2ccccc2c1N
Completion: -2.34

Prompt: Return Inhibition for the following compound: CN1CCc2ccccc2C1Cc1ccccc1NC(=O)c1sc2ccccc2c1Cl (configuration not stated)
Completion: 1.84

Prompt: Return Inhibition for the following compound: O=C(O)CCNC1CCCCC1
Completion: 7.12

Prompt: Return Inhibition for the following compound: COc1cc(CCC(=O)O)on1
Completion: 9.35

Prompt: Return Inhibition for the following compound: COC1OC2COC(c3ccccc3)OC2C(=O)C1NC(=O)c1ccccc1 (configuration not stated)
Completion: 8.72

Prompt: Return Inhibition for the following compound: O=C1CSC(c2cccs2)N1c1nncs1 (configuration not stated)
Completion: 13.4

Prompt: Return Inhibition for the following compound: C#Cc1cccc(NC(=O)c2ccc(Cl)cc2Cl)c1
Completion: 1.84

Prompt: Return Inhibition for the following compound: Oc1cc(CNC2CCCCC2)c(O)cc1CNC1CCCCC1
Completion: 1.43

* * *

Test system: Klebsiella pneumoniae
particulars: Concentration 20 uM; ASSAY_TEST Inhibition of Bacterial Growth; detection method Absorption (OD600); MEDIA CAMHB; plate type 384well; NBS; CORNING #3640; time 18 hr
Description: Antibacterial activity against Klebsiella pneumoniae MDR ATCC 70063 (CO-ADD:GN_003); MIC in CAMBH media using NBS plates, by OD(600)
Results with a measured potency or affinity are listed apart.
Mark not fulfilled for Inhibition values under 8%, and fulfilled for everything at or above.

Cc1nc(C(N)=O)nc2ccccc12	fulfilled
CC(C)c1cc(C(F)(F)F)nc(NNc2nc(C(C)C)cc(C(F)(F)F)n2)n1	fulfilled
CSc1ncc2ncn(C3OC(CO)C(O)C3O)c2n1 (configuration not stated)	fulfilled

Prompt: Confirm if Inhibition reported for the compound CCCCNC(=O)Nc1ccccc1CC is 8% or above.
Completion: fulfilled

Prompt: Confirm if Inhibition reported for the compound O=C(O)C1OCC2(CO1)COC(C(=O)O)OC2 (configuration not stated) is 8% or above.
Completion: not fulfilled

Prompt: Confirm if Inhibition reported for the compound CN(C)c1ccc(/C=C/C(=O)c2cc(Cl)ccc2O)cc1 is 8% or above.
Completion: not fulfilled

Prompt: Confirm if Inhibition reported for the compound CC(=O)NC1=C/C(=C\[N+](=O)[O-])C=C1O is 8% or above.
Completion: fulfilled

Prompt: Confirm if Inhibition reported for the compound Cc1nnsc1C(=O)NCc1c(F)cccc1Cl is 8% or above.
Completion: not fulfilled
